[
  {
    "COMPOUND": "CC(C)CC(c1nc2ccccc2n1Cc1cn(-c2ccccc2F)nn1)N1C(=O)c2ccccc2C1=O (stereo not shown) [6n]",
    "melting point": "107 to 109 °C"
  },
  {
    "COMPOUND": "CC(C)C(c1nc2ccccc2n1Cc1cn(-c2ccccc2F)nn1)N1C(=O)c2ccccc2C1=O (stereo not shown) [6s’]",
    "melting point": "115 to 117 °C"
  },
  {
    "COMPOUND": "CC(C)C(c1nc2ccccc2n1Cc1cn(-c2ccc(F)cc2F)nn1)N1C(=O)c2ccccc2C1=O (stereo not shown) [6t’]",
    "melting point": "100 to 102 °C"
  },
  {
    "COMPOUND": "CC(C)CC(c1nc2ccccc2n1Cc1cn(-c2ccc(F)cc2F)nn1)N1C(=O)c2ccccc2C1=O (stereo not shown) [6o]",
    "melting point": "126 to 128 °C"
  }
]
